Target: SLC23A1 (Homo sapiens)
Construct: expressed in transfected cells; host or cells: Jump In T-REx HEK293 (general cell-line paragraph)
Sequence (Q9UHI7 whole entry): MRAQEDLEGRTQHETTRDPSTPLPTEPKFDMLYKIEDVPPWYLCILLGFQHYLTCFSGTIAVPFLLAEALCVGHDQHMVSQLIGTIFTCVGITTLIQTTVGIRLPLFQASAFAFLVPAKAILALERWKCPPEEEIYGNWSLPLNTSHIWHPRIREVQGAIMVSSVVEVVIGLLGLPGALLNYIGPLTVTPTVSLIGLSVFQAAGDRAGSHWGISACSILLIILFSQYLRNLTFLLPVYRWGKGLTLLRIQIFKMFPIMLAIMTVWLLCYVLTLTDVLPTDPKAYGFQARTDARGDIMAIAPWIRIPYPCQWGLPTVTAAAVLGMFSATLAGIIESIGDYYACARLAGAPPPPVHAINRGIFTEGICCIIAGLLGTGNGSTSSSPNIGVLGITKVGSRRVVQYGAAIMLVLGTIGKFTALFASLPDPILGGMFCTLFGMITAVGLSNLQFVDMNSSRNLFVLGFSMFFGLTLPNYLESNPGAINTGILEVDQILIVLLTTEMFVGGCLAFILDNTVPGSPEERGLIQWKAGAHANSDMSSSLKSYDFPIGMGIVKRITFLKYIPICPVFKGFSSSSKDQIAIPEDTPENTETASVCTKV
Experiment: RESOLUTE assay on SLC23A1
Format: cell-based
Conditions: Flipr Membrane Potential-Blue-Dye; read-out: pIC50 (act), SLC23A1 (converted)

{"Molecule": "CCNC(=O)/C=C/c1cccc(Br)c1 [Cinromide]", "IC50": "> 3.16 µM"}
{"Molecule": "NC(C(=O)O)C(OCc1ccccc1)C(=O)O (stereo not drawn)", "IC50": "> 3.16 µM"}
{"Molecule": "COc1ccc(C2C(C#N)=C(N)OC3=C2C(=O)CC(c2cccc4ccccc24)C3)cc1 (stereo not drawn)", "IC50": "> 3.16 µM"}
{"Molecule": "N[C@@H](CC(=O)Nc1ccc(Oc2cc(F)c(F)cc2Br)cc1)C(=O)O", "IC50": "> 3.16 µM"}
{"Molecule": "CC1C(C#N)=C(N)OC2=C1C(=O)CC(c1cccc3ccccc13)C2 (stereo not drawn)", "IC50": "> 3.16 µM"}
{"Molecule": "CN1C2CCC1CC(OC(c1ccccc1)c1ccccc1)C2 (stereo not drawn)", "IC50": "> 3.16 µM"}
{"Molecule": "Cc1ccsc1C(=CCCN1CCC[C@@H](C(=O)O)C1)c1sccc1C", "IC50": "> 3.16 µM"}
{"Molecule": "CC(C)[C@H]1CN[C@H](C(=O)O)[C@H]1CC(=O)O [Dihydrokainate]", "IC50": "> 3.16 µM"}
{"Molecule": "N[C@H](C(=O)O)[C@H](OCc1cccc(NC(=O)c2ccc(C(F)(F)F)cc2)c1)C(=O)O", "IC50": "> 3.16 µM"}

----------
Biological target: UniProt:P43005
Sequence (P43005 whole entry): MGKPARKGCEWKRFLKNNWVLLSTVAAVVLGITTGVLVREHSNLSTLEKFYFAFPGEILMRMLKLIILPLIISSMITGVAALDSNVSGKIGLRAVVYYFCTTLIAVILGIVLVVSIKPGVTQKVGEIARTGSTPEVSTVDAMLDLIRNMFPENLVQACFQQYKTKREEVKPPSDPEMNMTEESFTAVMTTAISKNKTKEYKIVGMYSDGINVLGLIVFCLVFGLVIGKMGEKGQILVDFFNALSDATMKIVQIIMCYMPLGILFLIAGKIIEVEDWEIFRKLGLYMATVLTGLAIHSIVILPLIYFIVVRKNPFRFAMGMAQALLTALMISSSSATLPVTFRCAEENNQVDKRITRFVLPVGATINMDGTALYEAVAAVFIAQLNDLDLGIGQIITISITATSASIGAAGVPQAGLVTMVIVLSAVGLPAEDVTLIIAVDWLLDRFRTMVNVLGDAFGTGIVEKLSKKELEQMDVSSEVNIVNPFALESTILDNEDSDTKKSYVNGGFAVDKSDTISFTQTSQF
Assay: Echo-MS assay, uptake of labeled glutamic acid in dox-induced HEK293–JumpIn–SLC1A1 (EAAT3) cells
Assay type: cell-based
Set-up: expressed in transfected cells; host or cells: Jump In T-REx HEK293
Settings: target SLC1A1, assay EchoMS; read-out: pIC50 (act) (converted)
The following compounds are listed with their measured IC50 values.
Recorded Metric: IC50

{"Compound": "CCNC(=O)/C=C/c1cccc(Br)c1 [Cinromide]", "Endpoint Result": "> 30 µM"}
{"Compound": "CC(C)[C@H]1CN[C@H](C(=O)O)[C@H]1CC(=O)O [Dihydrokainate]", "Endpoint Result": "> 10 µM"}
{"Compound": "Cc1c(NC(=O)c2cc(C(N)=O)nc3cc(F)ccc23)c(C(F)(F)F)nn1Cc1ccc(C#N)cc1 [BAY-876]", "Endpoint Result": "> 30 µM"}
